Target: Protein RecA (Mycobacterium tuberculosis)
Experiment: Fluorescence Cell-Free Homogeneous Dose Retest to Identify Inhibitors of RecA-Intein Splicing Activity. [Related pubchem assays (depositor defined):AID2097, AID2223, AID489010, AID492950]
Format: functional
The source made the active and inactive calls.
Field: EC50. Provide a value for each of the molecules that follow.

Noted for `Cc1ccc(-n2nc(C)c(/C=N/NC(=O)c3ccc([N+](=O)[O-])cc3)c2O)c(C)c1` : its EC50 reads 21.2 µM (active)

Noted for `O=C1C(C2=C(O)c3ccccc3C2=O)=Nc2ccccc21` : its EC50 reads 1.6 µM (active)

Noted for `COc1ccc(/C=C2/C(=O)N(c3cccc(F)c3)N=C2C)c(OC)c1` : its EC50 reads 44.6 µM (active)

Noted for `COc1cc(C(c2c(C)[nH][nH]c2=O)c2c(C)[nH][nH]c2=O)ccc1OCc1ccc([N+](=O)[O-])cc1` : its EC50 reads 0.178 µM (active)

Noted for `Cn1c(/N=C/c2c(O)ccc3ccccc23)nc2ccccc21` : its EC50 reads 5.19 µM (active)

----------
Biological target: UniProtKB P34949
Sequence (P34949 whole entry): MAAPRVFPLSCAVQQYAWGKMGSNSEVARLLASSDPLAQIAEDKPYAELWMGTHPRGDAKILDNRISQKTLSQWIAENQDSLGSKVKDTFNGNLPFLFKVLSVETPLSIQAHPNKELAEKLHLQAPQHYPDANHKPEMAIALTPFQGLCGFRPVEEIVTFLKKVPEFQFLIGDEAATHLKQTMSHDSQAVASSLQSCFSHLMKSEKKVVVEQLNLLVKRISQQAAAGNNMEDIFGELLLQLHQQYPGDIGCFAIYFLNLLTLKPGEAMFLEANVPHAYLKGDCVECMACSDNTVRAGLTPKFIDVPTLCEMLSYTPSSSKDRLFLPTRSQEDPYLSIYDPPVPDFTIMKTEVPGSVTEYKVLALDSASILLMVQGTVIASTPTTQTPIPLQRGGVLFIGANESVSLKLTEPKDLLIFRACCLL
Assay: human PMI inhibitors, high substrate, primary screen, biochemical, fluorescence intensity, high mannose 6-phosphate (AID 1220)
The source made the active and inactive calls.
measured_property: IC50

Noted for `CCN(CC)c1ccc(NC(=O)c2ccccc2Br)cc1S(=O)(=O)Nc1ccccc1OC` : its IC50 reads 43.7 µM (active)

Noted for `Cn1c(/N=C/c2c(O)ccc3ccccc23)nc2ccccc21` : its IC50 reads 14.8 µM (active)

Noted for `Cc1ccc(NCc2ccc(O)c3ncccc23)cc1` : its IC50 reads > 50 µM (not active)

Noted for `COc1cc(/C=C2\C(=O)NC(=O)N(c3ccccc3)C2=O)c([N+](=O)[O-])cc1OC` : its IC50 reads > 50 µM (not active)

Noted for `CC1(C)Oc2ccc3ccc(=O)oc3c2-c2cnoc21` : its IC50 reads > 50 µM (not active)

Noted for `CN(C(S)=Nc1ccc(SC(F)F)cc1)c1ccc(O)cc1` : its IC50 reads > 50 µM (not active)

Noted for `Cc1ccc(NCc2nc3ccccc3n2CCOc2ccccc2)cc1` : its IC50 reads > 50 µM (not active)

Noted for CCC(C)NC(=O)c1c(N)n(CCCOC)c2nc3ccccc3nc12 (stereo not drawn) : its IC50 reads > 50 µM (not active)

----------
Assay: NIH-3T3 fibroblast cytotoxicity, dose response, cytotoxicity control, cell-based, fluorescence, Alamar Blue, secondary assay (AID 2327);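 note: NIH-3T3 mouse fibroblasts cultured with fluconazole at 8 µg/mL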
Type: functional
Calls of active or inactive are those of the source.
Answer with one of the outcomes active, inactive

Ask: Answer briefly: the call reported for `COc1ccccc1NS(=O)(=O)c1cc(NC(=O)CCC(=O)c2cccs2)ccc1Cl` in this assay.
Reply: active

Ask: Answer briefly: the call reported for `Cc1cc(Nc2ccc(Cl)cc2)nc(NCc2ccccc2)n1` in this assay.
Reply: inactive

Ask: Answer briefly: the call reported for `Cc1ccc(-n2nc(C)c(/C=N/NC(=O)c3ccc([N+](=O)[O-])cc3)c2O)c(C)c1` in this assay.
Reply: active

Ask: Answer briefly: the call reported for `O=C(CSc1cccc[n+]1[O-])CSc1cccc[n+]1[O-]` in this assay.
Reply: inactive

Ask: Answer briefly: the call reported for `C/C(=N\Nc1ccc([N+](=O)[O-])cc1)c1ccc(O)cc1` in this assay.
Reply: inactive
